# Read-out: Vascular cell adhesion molecule 1 (VCAM1), VCAM1 (gene 7412)
# Experimental Details: BSK_MyoF_VCAM1: BioMAP Diversity Plus: MyoF Assay for Vascular cell adhesion molecule 1 (VCAM1) Biomarker Activity (AID 2284231)
# Condition Set: primary human lung fibroblasts
Active and inactive are the calls of the source. Rule for the calls: active = hit-call score of the fitted dose curve at least 0.9, where 1 is the maximum; inactive = score below 0.9.
Outcomes you can answer with include only these: true (1) = active, false (0) = inactive

Would you please look over these solved cases?
Oc1cc(Cl)ccc1Cl; false (0)
CC(C)(C)C(O)C(Oc1ccc(-c2ccccc2)cc1)n1cncn1 (stereo unspecified); true (1)
O=P1(NCCCl)OCCCN1CCCl (stereo unspecified); false (0)

Assay outcome for CC1(C)[C@H](C(=O)O[C@H](C#N)c2cccc(Oc3ccccc3)c2)[C@@H]1C=C(Br)Br : what was it?
false (0)

Assay outcome for c1ccc(Nc2ccc3ccccc3c2)cc1 : what was it?
true (1)

Assay outcome for CC(C)(C)C(=O)CCl : what was it?
true (1)
